Ref: patent US8946438B2

Kindly supply the reported inhibition at 1 µM values for the records listed here.
Molecular target: p38 MAP-kinase (Homo sapiens, UniProt Q16539)
Sequence (Q16539 whole entry): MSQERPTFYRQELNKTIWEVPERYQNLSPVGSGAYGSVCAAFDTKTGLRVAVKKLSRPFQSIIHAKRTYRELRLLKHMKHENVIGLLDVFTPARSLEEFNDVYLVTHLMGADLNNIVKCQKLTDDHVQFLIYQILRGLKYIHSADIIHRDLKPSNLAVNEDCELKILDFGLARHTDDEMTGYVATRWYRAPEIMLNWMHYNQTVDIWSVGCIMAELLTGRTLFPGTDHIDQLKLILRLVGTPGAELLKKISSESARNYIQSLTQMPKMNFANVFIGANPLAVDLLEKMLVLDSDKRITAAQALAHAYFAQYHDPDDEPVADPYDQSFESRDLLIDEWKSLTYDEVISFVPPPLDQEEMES
Test: Enzymatic assay: inhibition of p38 MAP-kinase (phosphorylation of GST-tagged ATF2, chemoluminescence bead readout)
Format: biochemical
Details: inhibitor 1 μM; activated p38 MAP-kinase 1 nM; 4 h preincubation; ATP 100 μM; ATF2 10 nM; read-out: % inhibitory effect at 1 μM
Description: In this, the amount of a substrate phosphorylated by the kinase is quantified. The test is carried out as follows: The kinase reaction is carried out in the presence of HEPES (20 mM, pH 7), MgCl2 (10 mM), DTT (1 mM) and TWEEN20 (0.01%). […] The concentration of phosphorylated ATF2 is quantified by chemoluminescence-induced light emission. […] When these beads come physically close, visible light is emitted which is measured in a photometer at 520-620 nm. […]
One number for each entry, in %.

Before answering, review these 6 worked examples.
compound | target-system | readout-type | measured-result
COc1c(NC(=O)c2ccc(C)c(Oc3cc[n+]([O-])cc3)c2)cc(C(C)(C)C)cc1NS(C)(=O)=O [Example 1] | p38 MAP-kinase (Homo sapiens, UniProt Q16539) | inhibition at 1 µM | 90.8
COc1c(NC(=O)c2ccc(C)c(Oc3ccnc(CN4CCCN(C)CC4)c3)c2)cc(C(C)(C)C)cc1NS(C)(=O)=O [8(20)] | p38 MAP-kinase (Homo sapiens, UniProt Q16539) | inhibition at 1 µM | 99.4
COc1c(NC(=O)c2ccc(C)c(Oc3ccnc(CC4CCNCC4)c3)c2)cc(C(C)(C)C)cc1NS(C)(=O)=O [5(20)] | p38 MAP-kinase (Homo sapiens, UniProt Q16539) | inhibition at 1 µM | 99.5
COc1c(NC(=O)c2ccc(Cl)c(Oc3ccnc(CC4CCNCC4)c3)c2)cc(C(C)(C)C)cc1NS(C)(=O)=O [5(29)] | p38 MAP-kinase (Homo sapiens, UniProt Q16539) | inhibition at 1 µM | 99
COc1c(NC(=O)c2ccc(Cl)c(Oc3ccnc(CN4CCNCC4)n3)c2)cc(C(C)(C)C)cc1NS(C)(=O)=O [5(35)] | p38 MAP-kinase (Homo sapiens, UniProt Q16539) | inhibition at 1 µM | 98.3
COc1c(NC(=O)c2ccc(C)c(Oc3ccnc(CN4CCN(C)CC4)n3)c2)cc(C(C)(C)C)cc1NS(C)(=O)=O [8(6)] | p38 MAP-kinase (Homo sapiens, UniProt Q16539) | inhibition at 1 µM | 98.7

Asked: Consider the compound shown here: COc1c(NC(=O)c2ccc(Cl)c(Oc3ccnc(CN4CCNCC4)c3)c2)cc(C(C)(C)C)cc1NS(C)(=O)=O [5(34)] What is its recorded inhibition at 1 µM?
Given back: 99.1
